Reference for the values: ChEMBL document CHEMBL3507680

Quick reference: cytotoxicity at 70.5 h of the listed items.
assay: Human HepG2 cell viability assay in 384 well format; format: toxicity, cell-based; set-up: dose 125 nL, time 70.5 hour; concentration not given beside the values; conditions: HepG2 cells, read-out: Inhibition
Reply numerically in %, unit not repeated.

Here are 5 molecules together with their reported answers.
molecule: COc1ccc(Cl)cc1S(=O)(=O)N(C)CC(=O)Nc1cccnc1
result.number: -5.02

molecule: CN(Cc1ccco1)C[C@H]1OC[C@@H]2CCN(Cc3cccs3)C[C@@H]21
result.number: -13.4

molecule: Cc1csc(N(C)C(=O)C(c2c(F)cccc2Cl)N(C)C)n1 (stereo not drawn)
result.number: -0.598

molecule: Cc1cccc(C(=O)N2CCN(S(C)(=O)=O)[C@@H]3CS(=O)(=O)C[C@@H]32)n1
result.number: -7.33

molecule: Cc1cccnc1CNC(=O)CC1C(=O)NCCN1CC(C)(C)C (stereo not drawn)
result.number: -10.2

[Q] # query: cytotoxicity at 70.5 h of entry Cc1cccc(NC(=O)Cn2nc3ccccn3c2=O)c1C
[A] -10.3

[Q] Need cytotoxicity at 70.5 h of COCCN1CCCn2c(nc(Cn3cncn3)cc2=O)C1 , thanks.
[A] 19.3

[Q] Record request: cytotoxicity at 70.5 h value, item COCCC(=O)N1CCC(c2cncc(Oc3cccnc3)n2)CC1
[A] -0.961

[Q] # lookup: cytotoxicity at 70.5 h of CCN1CCN(C(=O)c2c[nH]c(C(C)C)n2)c2ccccc21
[A] 2.09

[Q] # query: cytotoxicity at 70.5 h of entry Cc1ccc(CN2CC[C@H]3OCC[C@@H](C(=O)N4CCCCO4)[C@@H]3C2)o1
[A] 47.1

[Q] Requested read-out: cytotoxicity at 70.5 h. Entry: COc1ccc(NC(=O)CCNc2ncccn2)cn1
[A] -30.9

[Q] Which measured cytotoxicity at 70.5 h value corresponds to CN(Cc1ccco1)[C@@H]1CN(Cc2cnn(C)c2)[C@@H]2CCCO[C@H]12 ?
[A] -12

[Q] Give its cytotoxicity at 70.5 h value. Item: Cc1cc(C)c(CNC(=O)NC2COc3ccccc3C2)c(=O)[nH]1 (stereo not drawn)
[A] -8.39

[Q] Please give the measured cytotoxicity at 70.5 h for this molecule: CCc1ccc(CN2CCNC(C(=O)N3CCN(C)CC3)C2)nc1 (stereo not drawn)
[A] -0.217

[Q] Given the entry COC(=O)c1ncccc1N1CCN(C(=O)CN2CCOCC2)CC1 , report its measured cytotoxicity at 70.5 h.
[A] 29.5

[Q] cytotoxicity at 70.5 h lookup needed for O=C(NCCCN1CCCC1=O)Nc1ccc(Br)cc1Cl , thanks.
[A] -3.68

[Q] Fill blank: measured cytotoxicity at 70.5 h of the molecule Cn1cc(Cl)c(CN2CCCC(Cn3cc(CO)nn3)C2)n1 (stereo not drawn) is ____.
[A] -6.23

[Q] Dear colleague, I am looking for the recorded cytotoxicity at 70.5 h of the following molecule: CC(C)(C)c1cn2nc(N3CCCC3Cn3cncn3)sc2n1 (stereo not drawn)
[A] -10.8

[Q] cytotoxicity at 70.5 h lookup needed for CN(Cc1ccc(N(C)C)cc1)C(=O)c1cc2c([nH]c1=O)CCCC2=O , thanks.
[A] -4.35

[Q] Any idea what its cytotoxicity at 70.5 h is? The molecule is COCC(=O)N1CCN(S(=O)(=O)c2ccccc2)[C@@H](C(=O)OC)C1
[A] -5.08

---

test: Human HepG2 cell viability assay in 384 well format; format: toxicity, cell-based; set-up: dose 125 nL, time 70.5 hour; concentration not given beside the values; details: HepG2 cells, read-out: Inhibition
measured.metric: cytotoxicity at 70.5 h (%)
Write the answer as a number in %, unit excluded.

Solved entries (count: 5):
molecule: O=C(C1CCCCC1)N1CCO[C@@H]2CNC[C@@H]21
units.text: %
cytotoxicity at 70.5 h: -2.15
//
molecule: CO[C@@H]1CC[C@H]2[C@H]1OCCN2Cc1ccc(F)cc1
units.text: %
cytotoxicity at 70.5 h: -9.94
//
molecule: Cn1nc2c(cc1=O)CN(Cc1nnc(C3CC3)o1)CC2
units.text: %
cytotoxicity at 70.5 h: 19.5
//
molecule: O=C(Cn1ncc2ccccc21)Nc1ccnn1CC1CCOC1 (centres undefined)
units.text: %
cytotoxicity at 70.5 h: -23.1
//
molecule: COc1cc(C(C)=O)ccc1OCC(=O)N(C)Cc1cnn(C)c1
units.text: %
cytotoxicity at 70.5 h: -7.56

[Q] Look up cytotoxicity at 70.5 h: Cc1cc(NC(=O)CN2CCc3cncnc3C2)on1
[A] 3.49

[Q] May I ask what cytotoxicity at 70.5 h has been recorded for CCCn1c(C)c(CC(=O)NCC(C)O)c2c1CC(C)(C)CC2=O (centres undefined) ?
[A] 2.45

[Q] // returns reported cytotoxicity at 70.5 h for input CC(=O)N1C[C@H](NS(=O)(=O)Cc2cccc(Cl)c2)[C@@H](C(C)C)C1
[A] -6.96

[Q] // cytotoxicity at 70.5 h lookup, key: Cn1nnc2c1C(COCc1cccnc1)CN(Cc1ccoc1)C2 (centres undefined)
[A] -16.5

---

test: Human HepG2 cell viability assay in 384 well format; format: toxicity, cell-based; design: dose 125 nL, time 70.5 hour; concentration not given beside the values; conditions: HepG2 cells, read-out: Inhibition
measured.metric: cytotoxicity at 70.5 h (%)
Write it as a number; the unit % goes unstated.

Record excerpt, results attached:
smiles.string: FC(F)(F)CCN(Cc1ccon1)C1CCCC1
cytotoxicity at 70.5 h, %: -7.02
--
smiles.string: Cc1nn(CC(=O)NCc2cc3n(n2)CCCN(CC(C)C)C3)cc1Cl
cytotoxicity at 70.5 h, %: 9.44
--
smiles.string: CN1CCN(C[C@H]2CC[C@@H](Cc3ccc(CN4CCCC4)cc3)O2)CC1
cytotoxicity at 70.5 h, %: -6.45
--
smiles.string: CCNC(=O)[C@@H]1C[C@@H](N)CN1Cc1ccc(-c2ccccc2C#N)o1
cytotoxicity at 70.5 h, %: -6.11
--
smiles.string: CCCOc1ccc(Cl)cc1C(=O)N1CCC(n2cncn2)CC1
cytotoxicity at 70.5 h, %: 17.2

[Q] What measured cytotoxicity at 70.5 h goes with CC(=O)N1CCc2cc(C(=O)O)c(-c3ccsc3)nc2CC1 ?
[A] -0.0308

[Q] Given Cc1cccn2c(=O)cc(OC(=O)c3ccc(OC(C)C)cc3)nc12 , state its recorded cytotoxicity at 70.5 h.
[A] -14.3

[Q] Could you tell me which cytotoxicity at 70.5 h is on file for CN(Cc1ccco1)C[C@H]1OC[C@@H]2CN(c3ncc(F)cn3)CC[C@@H]21 ?
[A] -1.81

---

experiment: Human HepG2 cell viability assay in 384 well format; type: toxicity, cell-based; set-up: dose 125 nL, time 70.5 hour; concentration not given beside the values; settings: HepG2 cells, read-out: Inhibition
measured.metric: cytotoxicity at 70.5 h (%)
Express it in %; write the number only.

compound: CN(C)C(=O)CN1CCCN(CC2CCOc3ccccc3C2)CC1 (centres undefined)
cytotoxicity at 70.5 h [%]: -11.2
//
compound: CN1C(=O)CC[C@@H]2[C@H]1CCN2S(=O)(=O)Cc1ccccc1
cytotoxicity at 70.5 h [%]: 47.7
//
compound: O=C(NCc1ccccn1)c1cncc(C2CCCN2)n1 (centres undefined)
cytotoxicity at 70.5 h [%]: 22.2
//
compound: O=C(CCc1cc2n(n1)CCCNC2)N1CCN(C2CCCC2)C(=O)C1
cytotoxicity at 70.5 h [%]: -7.76
//
compound: Cc1cnc(CCNc2cccc(CC3CCCNC3)n2)s1 (centres undefined)
cytotoxicity at 70.5 h [%]: 0.312

[Q] Given the compound Nc1nnc(CCNC(=O)c2cccc(C3CCCNC3)c2)s1 (centres undefined) , what is its reported cytotoxicity at 70.5 h?
[A] -10.1

[Q] Recorded cytotoxicity at 70.5 h of O=C(CCc1cccc(F)c1F)N1CCCC(n2cncn2)C1 (centres undefined) , please.
[A] -6.22

[Q] Look up cytotoxicity at 70.5 h for this compound: COc1ccc(CN2C[C@H]3CCC[C@@H](CN(C)C4CC4)[C@H]3C2)cn1
[A] 10.8

[Q] What value of measured cytotoxicity at 70.5 h is listed for CN1CCc2ccc(NCc3cscn3)cc2C1=O ?
[A] 2.5

[Q] Param item = COC(=O)c1ccoc1CN(C)CC(=O)N(C)C ; retrieve measured cytotoxicity at 70.5 h.
[A] -8.41

[Q] Recorded cytotoxicity at 70.5 h for Cc1ccccc1C1(O)CCN(C(=O)CCc2cn3ccccc3n2)C1 (centres undefined) , please?
[A] 17.9

[Q] Form field: reported cytotoxicity at 70.5 h of CC(C)(CNC(=O)CSc1nnnn1C1CC1)c1ccccc1F
[A] -7.67

[Q] Item under review: Cc1cccc(-c2ccc(C(=O)N3CCSCC3)c(=O)[nH]2)c1 . Reported cytotoxicity at 70.5 h?
[A] 0.198

[Q] Consider the compound shown here: CCCC(C)NCc1cccnc1N1CCN(c2ccccn2)CC1 (centres undefined) What is its recorded cytotoxicity at 70.5 h?
[A] -5.62

[Q] Consider the compound shown here: CN(C)C(=O)N[C@@H]1CN(Cc2ccc3c(c2)OCO3)[C@@H]2CCCO[C@@H]21 What is its recorded cytotoxicity at 70.5 h?
[A] 3.25

[Q] # input compound: O=C(O)CN1CCC(F)(F)C2(CCN(c3ccccn3)C2)C1 (centres undefined) ; wanted: its cytotoxicity at 70.5 h
[A] 2.21

[Q] # input compound: Cc1ccc(C)c(C(O)Cn2cc(Cl)c(=O)[nH]c2=O)c1 (centres undefined) ; wanted: its cytotoxicity at 70.5 h
[A] 13.1

[Q] Which value of cytotoxicity at 70.5 h has been reported for N#CC1(C(=O)N2C[C@H]3CC[C@@H]2CN(Cc2ccncc2)C3)CCOCC1 in the records?
[A] -23.5

[Q] What cytotoxicity at 70.5 h value was documented for this compound, CCc1nc(C2CCCN(c3nccc(C)n3)C2)no1 (centres undefined) ?
[A] -12.5

[Q] Look up cytotoxicity at 70.5 h: Cn1cnnc1S(=O)(=O)C1CCN(S(=O)(=O)c2ccccc2F)CC1
[A] -9.91

[Q] # query: cytotoxicity at 70.5 h of entry CC(C)n1nccc1NC(=O)CN1CCc2sccc2C1
[A] -15.3

[Q] Item Cc1cnc(CC2COCCN(C(=O)CN3CCCCC3)C2)cn1 (centres undefined) has what recorded cytotoxicity at 70.5 h?
[A] -2.32

[Q] Query (compound): O=C(c1cc(-c2ccco2)cs1)N1CCCC1 ; field requested: cytotoxicity at 70.5 h
[A] -16.3

[Q] Return reported cytotoxicity at 70.5 h; argument: Cc1c(Cn2ccnc2-c2cc(CN(C)C)cs2)cnn1C
[A] 3.72
